src = ChEMBL document CHEMBL1132424

Test system: A2780
Assay: In vitro cytotoxicity against. ovarian carcinoma cell line A2780cisR (cisplatin resistant counter part of A2780).
Type: functional, cell-based, Homo sapiens
Conditions: a2780
quantity: pIC50
Keep in mind that pIC50 stands for -log10 of concentration in molar terms.

Query block: Which pIC50 is reported with A2780 for this entry: CISPLATIN ?
Result block: 5.21

====

System: SK-OV-3
Assay: In vitro cytotoxicity against. ovarian carcinoma cell line SKOV-3.
Format: functional, cell-based, Homo sapiens
Conditions: sk-ov-3
quantity: pIC50
Keep in mind that pIC50 stands for -log10 of concentration in molar terms.

Query block: For CISPLATIN , what is its reported pIC50?
Result block: 5.38
